biological target: UreA W82Y (Aspergillus nidulans, UniProt Q5BGB2, W82Y); experiment: [14C]-urea uptake in germinating conidiospores, UreA W82Y mutant
Sequence (Q5BGB2 1-693, stated change not applied): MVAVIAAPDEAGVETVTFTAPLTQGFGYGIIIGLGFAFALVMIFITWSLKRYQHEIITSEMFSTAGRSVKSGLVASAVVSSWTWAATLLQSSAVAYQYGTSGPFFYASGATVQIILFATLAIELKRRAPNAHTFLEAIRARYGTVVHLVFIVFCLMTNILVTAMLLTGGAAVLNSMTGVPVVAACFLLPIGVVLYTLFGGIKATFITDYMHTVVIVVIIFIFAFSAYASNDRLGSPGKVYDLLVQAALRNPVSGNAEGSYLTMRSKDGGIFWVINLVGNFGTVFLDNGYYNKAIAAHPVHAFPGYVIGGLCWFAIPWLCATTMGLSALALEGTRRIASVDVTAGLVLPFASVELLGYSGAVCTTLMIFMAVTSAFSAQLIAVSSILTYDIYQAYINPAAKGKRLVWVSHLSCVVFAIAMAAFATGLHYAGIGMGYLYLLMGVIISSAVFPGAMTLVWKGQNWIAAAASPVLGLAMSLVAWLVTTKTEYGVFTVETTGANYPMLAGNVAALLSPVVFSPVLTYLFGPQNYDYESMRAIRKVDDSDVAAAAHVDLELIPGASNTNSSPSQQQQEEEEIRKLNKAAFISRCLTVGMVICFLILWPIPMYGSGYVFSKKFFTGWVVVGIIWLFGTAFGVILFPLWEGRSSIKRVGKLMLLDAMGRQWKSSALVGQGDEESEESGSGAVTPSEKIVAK
pKi: −log10 of the molar value.
Listing of recorded pKi by entry.

compound | qualifier-sign | pKi
NC(N)=S [Thiourea, 2-thiourea] | < | 3.00
CC(N)=O [Acetamide, acetamide] | = | 4.00

* * *

target: UreA W84F (Aspergillus nidulans, UniProt Q5BGB2, W84F); test: [14C]-urea uptake in germinating conidiospores, UreA W84F mutant
pKi: −log10 of the molar value.
Listing of recorded pKi by entry.

compound | qualifier-sign | pKi
CC(N)=O [Acetamide, acetamide] | = | 3.28
NC(N)=S [Thiourea, 2-thiourea] | < | 2.70

* * *

molecular target: UreA W84A (Aspergillus nidulans, UniProt Q5BGB2, W84A); assay: [14C]-urea uptake in germinating conidiospores, UreA W84A mutant
Sequence (Q5BGB2 1-693, stated change not applied): as above
Listing of recorded Ki by entry.
measurement-label: Ki (µM)

molecule | measurement-label | uom | qualifier-sign | observed-value
CC(N)=O [Acetamide, acetamide] | Ki | µM | = | 489
NC(N)=S | Ki | µM | > | 2000

* * *

biological target: UreA wt (Aspergillus nidulans); assay: [14C]-urea uptake in germinating conidiospores, wt UreA; type: cell-based; details: read-out: Thiourea Ki; allele wt; inhibition of [14C]-urea uptake, Ki from IC50
Sequence (Q5BGB2 1-693): as the sequence (Q5BGB2 1-693, stated change not applied) above
pKi: −log10 of the molar value.

compound | pKi
NC(N)=S [Thiourea, 2-thiourea] | 3.28

* * *

Listing of recorded Ki by entry.
target: UreA T282A (Aspergillus nidulans, UniProt Q5BGB2, T282A); assay: [14C]-urea uptake in germinating conidiospores, UreA T282A mutant
Sequence (Q5BGB2 1-693, stated change not applied): as above
measurement-label: Ki (µM)

molecule | experimental-target | measurement-label | qualifier-sign | observed-value
NC(N)=S | UreA T282A (Aspergillus nidulans, UniProt Q5BGB2, T282A) | Ki | > | 1000
CC(N)=O [Acetamide, acetamide] | UreA T282A (Aspergillus nidulans, UniProt Q5BGB2, T282A) | Ki | = | 361

* * *

target: UreA T282S (Aspergillus nidulans, UniProt Q5BGB2, T282S); assay: [14C]-urea uptake in germinating conidiospores, UreA T282S mutant
Sequence (Q5BGB2 1-693, stated change not applied): as above
pKi: −log10 of the molar value.

compound | qualifier-sign | pKi
NC(N)=S [Thiourea, 2-thiourea] | < | 3.00
CC(N)=O [Acetamide, acetamide] | = | 3.54
